Target: UniProt:P51531
Sequence (P51531 whole entry): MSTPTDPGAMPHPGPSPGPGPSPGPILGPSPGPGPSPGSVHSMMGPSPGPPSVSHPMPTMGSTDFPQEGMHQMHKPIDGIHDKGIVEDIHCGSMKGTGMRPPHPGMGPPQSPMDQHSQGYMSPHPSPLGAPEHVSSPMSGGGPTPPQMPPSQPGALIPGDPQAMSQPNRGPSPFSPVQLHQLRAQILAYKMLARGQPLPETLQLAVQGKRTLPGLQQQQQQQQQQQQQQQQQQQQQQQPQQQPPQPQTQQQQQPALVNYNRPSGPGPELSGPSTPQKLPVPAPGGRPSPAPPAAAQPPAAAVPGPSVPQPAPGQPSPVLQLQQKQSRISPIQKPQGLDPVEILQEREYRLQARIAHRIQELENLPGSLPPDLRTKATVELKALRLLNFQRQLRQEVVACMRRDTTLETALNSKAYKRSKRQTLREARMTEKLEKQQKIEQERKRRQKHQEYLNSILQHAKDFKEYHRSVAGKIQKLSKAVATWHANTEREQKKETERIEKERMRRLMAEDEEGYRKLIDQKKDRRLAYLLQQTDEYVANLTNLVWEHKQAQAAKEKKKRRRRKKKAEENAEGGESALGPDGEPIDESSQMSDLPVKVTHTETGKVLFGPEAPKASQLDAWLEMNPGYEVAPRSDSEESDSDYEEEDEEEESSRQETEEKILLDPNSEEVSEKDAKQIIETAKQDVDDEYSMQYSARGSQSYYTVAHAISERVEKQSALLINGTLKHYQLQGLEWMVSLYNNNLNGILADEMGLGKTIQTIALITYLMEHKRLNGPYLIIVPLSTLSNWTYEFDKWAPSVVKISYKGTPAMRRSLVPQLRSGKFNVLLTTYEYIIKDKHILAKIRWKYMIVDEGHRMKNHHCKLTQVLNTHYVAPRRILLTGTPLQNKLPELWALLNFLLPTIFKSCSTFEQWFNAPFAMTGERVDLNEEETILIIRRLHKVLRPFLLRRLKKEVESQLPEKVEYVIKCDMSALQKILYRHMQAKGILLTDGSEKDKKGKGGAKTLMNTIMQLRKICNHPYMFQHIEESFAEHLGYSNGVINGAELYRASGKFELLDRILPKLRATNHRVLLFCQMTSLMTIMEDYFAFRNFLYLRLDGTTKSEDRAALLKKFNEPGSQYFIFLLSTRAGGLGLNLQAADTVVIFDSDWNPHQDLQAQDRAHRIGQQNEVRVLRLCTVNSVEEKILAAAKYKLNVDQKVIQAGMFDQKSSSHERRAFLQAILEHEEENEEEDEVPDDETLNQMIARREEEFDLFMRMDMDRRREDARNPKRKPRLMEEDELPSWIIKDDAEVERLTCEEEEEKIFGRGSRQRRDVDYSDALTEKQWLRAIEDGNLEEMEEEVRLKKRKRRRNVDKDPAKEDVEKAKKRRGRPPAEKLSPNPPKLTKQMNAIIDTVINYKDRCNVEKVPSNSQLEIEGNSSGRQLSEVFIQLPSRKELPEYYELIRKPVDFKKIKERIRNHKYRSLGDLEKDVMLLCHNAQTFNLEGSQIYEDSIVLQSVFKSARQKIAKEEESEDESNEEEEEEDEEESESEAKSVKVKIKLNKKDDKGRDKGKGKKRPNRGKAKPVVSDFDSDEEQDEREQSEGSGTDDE
Experiment: MSD SMARCA2 degradation in A549 cell line
Type: cell-based
Conditions: A549, A549 cells, 24 h
readout label: Dmax

Consider the following illustrative entries.
>>> result("Cc1ncsc1-c1ccc(CNC(=O)[C@@H]2C[C@@H](O)CN2C(=O)[C@@H](NC(=O)CCN2CCC(Cn3cc(-c4cc(-c5ccccc5O)nnc4N)cn3)CC2)C(C)(C)C)cc1")
"< 50%"
>>> result("Cc1ncsc1-c1ccc(CNC(=O)[C@@H]2C[C@@H](O)CN2C(=O)C(N(C)C(=O)C[C@H]2CC[C@H](N3CCC(c4cnc(N5C6CCC5CN(c5cc(-c7ccccc7O)nnc5N)C6)nc4)CC3)CC2)C(C)(C)C)cc1 (stereo partly drawn)")
"> 90%"

Incoming: What reported Dmax corresponds to CN(CCCOCCCc1cccc2c1n(C)c(=O)n2C1CCC(=O)NC1=O)Cc1ccc(C#Cc2cc(NC(=O)Nc3cc(F)ncc3CO)ccn2)cc1 (stereo not drawn) on UniProt:P51531?
Outgoing: < 50%

// provenance: patent US12624044B2
